These measurements were taken from ChEMBL document CHEMBL3507680.

- assay: Human HepG2 cell viability assay in 384 well format
- Type: toxicity, cell-based
- Parameters: dose 125 nL, time 70.5 hour; concentration not given beside the values
- details: HepG2 cells, read-out: Inhibition
readout: cytotoxicity at 70.5 h (%)
Respond with the bare value in %.

Please report cytotoxicity at 70.5 h for the following compound: Cc1cc(CN2CCCC2c2noc(C)n2)no1 (stereo not given) 4.25

Check the records and state cytotoxicity at 70.5 h for O=S1(=O)CCC(CNc2cc(-c3ccccc3)nc3ccnn23)C1 (stereo not given) -9.95

State its cytotoxicity at 70.5 h for this compound: CCc1nc(C2CCCN2CCn2cncn2)no1 (stereo not given) -5.31

Respond only with cytotoxicity at 70.5 h recorded for OC1(CN2CCOC(CNc3cccnn3)C2)CCCCC1 (stereo not given) 0.208

Provide only the value of recorded cytotoxicity at 70.5 h for CC(C)Cc1cc(NC(=O)c2ccc[nH]2)n(C)n1 -11.1

Report cytotoxicity at 70.5 h for Cc1ccc(CN2C[C@@H]3COC[C@]3(COc3ccc(C#N)cn3)C2)o1 7.17

Identify measured cytotoxicity at 70.5 h corresponding to O=C(NCC(F)(F)C(F)F)c1ccncc1 -8.69

Supply cytotoxicity at 70.5 h value. Item: CC(Cc1cnccn1)NC(=O)c1cccc(CC2CCNCC2)c1 (stereo not given) 14

For the compound COc1ccc(CN2CCOC3(CCCN(c4cnccn4)C3)C2)cc1 (stereo not given) , report cytotoxicity at 70.5 h. -4.22

Give cytotoxicity at 70.5 h for the following compound: CCc1ccc2c(c1)C(CCNC(=O)CCc1ccsc1)C(=O)N2 (stereo not given) -2.26

Return reported cytotoxicity at 70.5 h. Input compound: Cc1ccc(NC2CCN(C(=O)CCCc3cccs3)CC2)nn1 -2.88

Return cytotoxicity at 70.5 h for the following compound: O=C1[C@H]2CN(CC3CC3)C[C@H]2CN1Cc1cccc(F)c1 -7.25

Return cytotoxicity at 70.5 h for the following compound: COc1cccc2c1ccn2CCNC(=O)CC(C)C -15.1

Quickly give me recorded cytotoxicity at 70.5 h for c1cn(-c2ccc(CN3CCOC(Cn4cncn4)C3)cc2)cn1 (stereo not given) -7.67

Tell me measured cytotoxicity at 70.5 h for Cc1cc(-c2ccnn2C)nc(C2CCN(S(C)(=O)=O)CC2)n1 please. -4.75

Please indicate cytotoxicity at 70.5 h recorded for CC(=O)N1CCOCC2(CCCNC2)C1 (stereo not given) -9.88

Answer with the recorded cytotoxicity at 70.5 h of O=C(NCC1CCOCC1)c1cc(-c2cccnc2)c2cnccc2n1 only. -8.58

Check the records and state cytotoxicity at 70.5 h for O=C(c1ccc[nH]1)N1CCCC1c1nc(-c2ccccc2)n[nH]1 (stereo not given) -1.48

Kindly indicate its recorded cytotoxicity at 70.5 h. Item: CCn1ncnc1CN(CCOC)Cc1ccc(C)cc1 -4.05

Input CNS(=O)(=O)CCCN1CCCN(Cc2ccccc2)CC1C (stereo not given) , output reported cytotoxicity at 70.5 h. 14.3

Find the measured cytotoxicity at 70.5 h of CCc1nc(CN2CCCN(C(=O)CC3CCCC3)CC2)cs1 and report it. 4.58

Name the recorded cytotoxicity at 70.5 h of the compound listed here: CCCN1CCN(Cc2cn(CCC(N)=O)c3ccccc23)CC1 -3.42

For CC(C)COC1CCN(S(=O)(=O)Cc2cccc(F)c2)CC1 , write its cytotoxicity at 70.5 h. -14.2

# return recorded cytotoxicity at 70.5 h for entry O=C(Nc1ccc2c(c1)OCCO2)N1CCCC1c1ccco1 (stereo not given) -10.5

Let me know recorded cytotoxicity at 70.5 h for COC(C)(C)C(=O)N[C@H]1CN(c2ncccc2C(N)=O)C[C@@H]1C(C)C , thanks. 0.335
